settings: in water, 293.2 K
experimental-readout: solubility (mole fraction)
The reply should be a number, written without any unit.

// field: solubility (mole fraction); key: Cn1c([N+](=O)[O-])cnc1N1CCN(S(C)(=O)=O)C1=O ; value = 2.86e-06

###

settings: in isopropanol, 293.2 K
experimental-readout: solubility (mole fraction)
The reply should be a number, written without any unit.

// field: solubility (mole fraction); key: Cn1c([N+](=O)[O-])cnc1N1CCN(S(C)(=O)=O)C1=O ; value = 0.000315

###

settings: in NMP, 308.2 K
experimental-readout: solubility (mole fraction)
The reply should be a number, written without any unit.

// field: solubility (mole fraction); key: Cn1c([N+](=O)[O-])cnc1N1CCN(S(C)(=O)=O)C1=O ; value = 0.262

All values here come from BigSolDB 2.1.
